Measured on: cloned human KOR (hKOR), kappa-opioid receptor (Homo sapiens, UniProt P41145)
Sequence (P41145 whole entry): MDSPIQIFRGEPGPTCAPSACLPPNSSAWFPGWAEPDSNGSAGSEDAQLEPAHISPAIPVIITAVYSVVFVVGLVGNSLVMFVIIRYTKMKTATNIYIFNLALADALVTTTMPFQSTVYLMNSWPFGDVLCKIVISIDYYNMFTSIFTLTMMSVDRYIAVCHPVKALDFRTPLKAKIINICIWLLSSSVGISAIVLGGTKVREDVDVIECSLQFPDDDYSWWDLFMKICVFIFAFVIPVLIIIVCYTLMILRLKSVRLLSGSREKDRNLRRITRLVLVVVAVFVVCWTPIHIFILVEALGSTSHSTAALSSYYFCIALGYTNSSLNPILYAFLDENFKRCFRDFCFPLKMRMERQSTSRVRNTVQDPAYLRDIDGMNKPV
Test method notes: biochemical
pEC50: −log10 of the molar value.
Recorded metric: pEC50

>>> numeric_result("CNC1(c2ccccc2Cl)CCCCC1=O (stereo not shown)")
4.54

Data origin: paper PMC2869248
